- Tested on: c-Abl (mouse);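 further: 11-residue human phosphosite peptides and single-mutation variants displayed on the E. coli surface, counted by deep sequencing, each peptide's frequency after selection divided by its frequency in the unselected input library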;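 further: frequency after pTyr selection over input frequency; kinase dosed for 20-30% of maximal phosphorylation in three min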
- measurementProtocol: phosphorylation enrichment, bacterial display (enrichment ratio); higher = better substrate or ligand; peptides without Tyr show the background
Entries get a class label from measured phosphorylation enrichment. See ranges: zone 1 = under 0.5, zone 2 = from 0.5 up to 0.8, zone 3 = 0.8 and over

Would you please look over these solved cases?
>>> df
                        sequencedata         system  classification
0      TGQERYRAITS [RAB11B_Y73_A68T]  c-Abl (mouse)          zone 1
1              PKEQKYSFLQN [GH1_Y68]  c-Abl (mouse)          zone 2
2   IIEDPYFGNDF [ACP1_Y132_S137F_YF]  c-Abl (mouse)          zone 3
3  FSTPPYLLEAA [BRIP1_Y921_S919P_YF]  c-Abl (mouse)          zone 2

In plain terms, what class is CTTIHYFFMCN [TP53_Y234_N235Y_YF] ?
zone 2
